cond: 298.15 K; 101 kPa; Liquid; Sing-around technique in a fixed-path interferometer
Below, each of the compounds is paired with its reported speed of sound value.
The reply should be a number in m/s, with the unit left off.

Some entries whose results are on file:
| compound.string | recorded.number |
| --- | --- |
| Cc1ccccc1C | 1341.5 |
| Cc1ccc(C)cc1 | 1305.4 |
| COC(C)(C)C | 1036.9 |
| Cc1cccc(C)c1 | 1320.9 |

Consider the record given below.
Task item: Look up speed of sound: CCOC(C)(C)C
Reply: 1031

###

cond: 300.65 K; 101 kPa; Liquid
assay.readout: mass density (kg/m3)
Give just the number in kg/m3; leave the unit off.

Worked cases, mass density given:
| compound.string | assay.readout | recorded.number |
| --- | --- | --- |
| CCOC(C)(C)C | mass density | 732.225 |
| Cc1ccc(C)cc1 | mass density | 854.501 |
| COC(C)(C)C | mass density | 731.766 |
| Cc1ccccc1C | mass density | 872.865 |

Next compound, please.
Task item: Look at this compound and give its reported mass density. Cc1cccc(C)c1
Reply: 857.742

###

Quick list: speed of sound per entry.
cond: 295.65 K; 101 kPa; Liquid; Sing-around technique in a fixed-path interferometer
Value expressed in m/s; do not type the unit.

Examples from the recorded data:
| compound.string | speed of sound / m/s |
| --- | --- |
| COC(C)(C)C | 1048.5 |
| Cc1ccccc1C | 1351.8 |
| CCOC(C)(C)C | 1042.2 |

Task item: Reported speed of sound, compound Cc1ccc(C)cc1 : ____
Reply: 1315.6

Task item: Please look up its speed of sound: Cc1cccc(C)c1
Reply: 1331.3

###

cond: 315.65 K; 101 kPa; Liquid; Sing-around technique in a fixed-path interferometer
# maps each entry to its speed of sound
Write down the numeric answer in m/s and omit the unit.

As a guide, the following entries are already answered.
| molecule | assay.readout | recorded.number |
| --- | --- | --- |
| Cc1ccc(C)cc1 [1,4-dimethylbenzene] | speed of sound | 1237.6 |
| Cc1cccc(C)c1 [1,3-dimethylbenzene] | speed of sound | 1249.3 |
| COC(C)(C)C [2-methoxy-2-methylpropane] | speed of sound | 956.8 |
| Cc1ccccc1C [1,2-dimethylbenzene] | speed of sound | 1270.5 |

# next molecule below
Task item: Field request: speed of sound | item: CCOC(C)(C)C [2-ethoxy-2-methylpropane]
Reply: 953.54

###

mass density values by entry
cond: 308.15 K; 101 kPa; Liquid
Field format: number, assumed kg/m3, no unit text.

| compound.string | mass density (kg/m3) |
| --- | --- |
| Cc1ccc(C)cc1 | 847.969 |

Task item: Which mass density reading was recorded for the compound COC(C)(C)C ?
Reply: 723.763

Task item: Entry under review: CCOC(C)(C)C . Reported mass density?
Reply: 724.443

Task item: Record request: mass density value, item Cc1ccccc1C
Reply: 866.538

Task item: Return reported mass density; argument: Cc1cccc(C)c1
Reply: 851.282

###

cond: 298.15 K; 101 kPa; Liquid
Catalogue of compounds with associated mass density
Give just the number in kg/m3; leave the unit off.

The cases that follow already have their mass density on record.
| compound.string | recorded.number |
| --- | --- |
| CCOC(C)(C)C | 734.806 |
| Cc1ccc(C)cc1 | 856.675 |
| Cc1ccccc1C | 874.968 |
| Cc1cccc(C)c1 | 859.89 |

Now consider the entry below.
Task item: Data request, read-out mass density, for COC(C)(C)C
Reply: 734.406

###

Quick reference for mass density among some compounds
cond: 288.15 K; 101 kPa; Liquid
The reply should contain only the number, in kg/m3.

Task item: Looking for the measured mass density of CCOC(C)(C)C , can you help?
Reply: 744.955

Task item: May I ask what mass density has been recorded for Cc1cccc(C)c1 ?
Reply: 868.459

Task item: If you can, please state the reported mass density value of COC(C)(C)C .
Reply: 744.861

Task item: Field request: mass density | item: Cc1ccc(C)cc1
Reply: 865.354

Task item: Fill in: mass density of Cc1ccccc1C is ___
Reply: 883.36

###

cond: 313.15 K; 101 kPa; Liquid
Lab note: anything with mass density below 800 kg/m3 is marked Fulfilled; values at 800 kg/m3 or higher are marked Not fulfilled.

Use these answered entries as a reference point.
| compound | class.assignment |
| --- | --- |
| Cc1cccc(C)c1 [1,3-dimethylbenzene] | Not fulfilled |
| Cc1ccccc1C [1,2-dimethylbenzene] | Not fulfilled |
| COC(C)(C)C [2-methoxy-2-methylpropane] | Fulfilled |
| CCOC(C)(C)C [2-ethoxy-2-methylpropane] | Fulfilled |

Please look at the following compound next.
Task item: Strictly below 800 kg/m3 in mass density? Cc1ccc(C)cc1 [1,4-dimethylbenzene]
Reply: Not fulfilled

###

cond: 315.65 K; 101 kPa; Liquid
assay.readout: mass density (kg/m3)
Number in kg/m3, nothing else.

| compound.string | mass density / kg/m3 |
| --- | --- |
| CCOC(C)(C)C | 716.527 |
| Cc1cccc(C)c1 | 844.792 |
| Cc1ccc(C)cc1 | 841.41 |
| COC(C)(C)C | 715.636 |

In the following, a different molecule is considered.
Task item: Report mass density for Cc1ccccc1C please.
Reply: 860.179

###

cond: 300.65 K; 101 kPa; Liquid; Sing-around technique in a fixed-path interferometer
± gives the expanded uncertainty stated by the source.
assay.readout: speed of sound
Answer shape: numeric part, then the unit.

| compound.string | speed of sound |
| --- | --- |
| CCOC(C)(C)C | 1019.8 ± 2.2 m/s |
| Cc1cccc(C)c1 | 1310.6 ± 2.2 m/s |
| Cc1ccc(C)cc1 | 1295.3 ± 2.2 m/s |

Task item: Look at this molecule and give its reported speed of sound. Cc1ccccc1C
Reply: 1331.2 ± 2.2 m/s

Task item: Item COC(C)(C)C has what recorded speed of sound?
Reply: 1025.4 ± 2.2 m/s

###

cond: 320.65 K; 101 kPa; Liquid; Sing-around technique in a fixed-path interferometer
Lab note: compare speed of sound against 1000 m/s. Equal or greater, write Satisfied. Smaller, write Not satisfied.

Task item: Is it the case that Cc1ccccc1C has speed of sound reaching or exceeding 1000 m/s?
Reply: Satisfied

###

cond: 310.65 K; 101 kPa; Liquid
Short version: mass density at least 800 kg/m3 is 1, less is -1.

Use these answered entries as a reference point.
| compound.string | class.assignment |
| --- | --- |
| CCOC(C)(C)C | -1 |
| COC(C)(C)C | -1 |
| Cc1ccc(C)cc1 | 1 |
| Cc1cccc(C)c1 | 1 |

Task item: Please tell me: is the compound Cc1ccccc1C at or over 800 kg/m3 in terms of mass density?
Reply: 1

###

cond: 290.65 K; 101 kPa; Liquid; Sing-around technique in a fixed-path interferometer
assay.readout: speed of sound (m/s)
The reply should contain only the number, in m/s.

| compound.string | assay.readout | unit.text | recorded.number |
| --- | --- | --- | --- |
| Cc1ccc(C)cc1 | speed of sound | m/s | 1336.9 |
| Cc1ccccc1C | speed of sound | m/s | 1371.8 |
| CCOC(C)(C)C | speed of sound | m/s | 1065.1 |
| COC(C)(C)C | speed of sound | m/s | 1071.6 |

Note: attention shifts to another entry.
Task item: Requested read-out: speed of sound. Entry: Cc1cccc(C)c1
Reply: 1352.1

###

cond: 293.15 K; 101 kPa; Liquid
assay.readout: mass density (kg/m3)
Note: unit kg/m3 is implicit; provide only the numeric part.

| compound | mass density [kg/m3] |
| --- | --- |
| Cc1ccccc1C [1,2-dimethylbenzene] | 879.168 |
| CCOC(C)(C)C [2-ethoxy-2-methylpropane] | 739.947 |

Task item: Entry COC(C)(C)C [2-methoxy-2-methylpropane] : reported mass density = ?
Reply: 739.654

Task item: For Cc1cccc(C)c1 [1,3-dimethylbenzene] , what is its reported mass density?
Reply: 864.177

Task item: Give the measured mass density of Cc1ccc(C)cc1 [1,4-dimethylbenzene] .
Reply: 861.015

###

cond: 308.15 K; 101 kPa; Liquid; Sing-around technique in a fixed-path interferometer
assay.readout: speed of sound (m/s)
Give just the numeric value; m/s need not be written.

Example results:
| compound.string | speed of sound, m/s |
| --- | --- |
| Cc1ccccc1C | 1300.7 |
| Cc1ccc(C)cc1 | 1266.1 |

Task item: What does the data say about its speed of sound? Entry: Cc1cccc(C)c1
Reply: 1279.8

Task item: Recorded speed of sound of COC(C)(C)C , please.
Reply: 990.99

Task item: Data request, read-out speed of sound, for CCOC(C)(C)C
Reply: 986.39
